Tested on: Coxsackievirus B6
experimental_protocol: Antiviral activity against Coxsackievirus B6 in african green monkey Vero cells
Format: functional
recorded_metric: Activity (µM)
Quick reminder: number only, in µM, skip the unit.

For orientation, consider the following solved cases.
N#Cc1cc([N+](=O)[O-])ccc1Oc1ccc(Cl)c(Cl)c1; 12
N#Cc1cc([N+](=O)[O-])ccc1Oc1ccccc1; 19
N#Cc1cc([N+](=O)[O-])ccc1Oc1ccccc1Cl; 8.1
N#Cc1cc([N+](=O)[O-])ccc1Oc1cccc(Cl)c1Cl; 10

Proceeding to the next molecule to report its Activity.
Task item: Tell me Activity of Cc1cccc(Oc2ccc([N+](=O)[O-])cc2C#N)c1 when tested on Coxsackievirus B6.
Reply: 22

---

System: Coxsackievirus B3
experimental_protocol: Antiviral activity against Coxsackievirus B3 assessed as reduction of virus-induced cytopathogenicity after 3 days by MTS assay
Assay type: functional, organism-based
assay_conditions: Enterovirus B, 72 h
recorded_metric: IC50

For orientation, consider the following solved cases.
CN(C)c1cccc(Oc2ccc([N+](=O)[O-])cc2C#N)c1; 31 µM
N#Cc1cc([N+](=O)[O-])ccc1Oc1cccc(Cl)c1Cl; 4.9 µM
N#Cc1cc([N+](=O)[O-])ccc1Oc1cccc(C(=O)O)c1; > 352 µM

Task item: # return recorded IC50 for input CC(=O)Nc1cccc(Oc2ccc([N+](=O)[O-])cc2C#N)c1
Reply: 121 µM

Task item: # return recorded IC50 for input N#Cc1cc([N+](=O)[O-])ccc1Oc1cccc(NC(N)=S)c1
Reply: 234 µM

Task item: # return recorded IC50 for input N#Cc1cc([N+](=O)[O-])ccc1Oc1ccc(Cl)c(Cl)c1
Reply: 6.5 µM

---

Test system: Coxsackievirus B3
experimental_protocol: Antiviral activity against Coxsackievirus B3 assessed as reduction of virus-induced cytopathogenicity after 3 days by MTS assay
Type: functional, organism-based
assay_conditions: Enterovirus B, 72 h
recorded_metric: IC50

CC(C)c1cccc(Oc2ccc([N+](=O)[O-])cc2C#N)c1; 40 µM
N#Cc1cc([N+](=O)[O-])ccc1Oc1ccc([N+](=O)[O-])cc1Cl; 39 µM
N#Cc1ccc(Oc2ccc([N+](=O)[O-])cc2C#N)c(Cl)c1; 7.3 µM
CC(C)(C)c1ccc(Oc2ccc([N+](=O)[O-])cc2C#N)cc1; > 338 µM
CS(=O)(=O)c1ccc(Oc2ccc([N+](=O)[O-])cc2C#N)cc1; 174 µM
CC(=O)c1cccc(Oc2ccc([N+](=O)[O-])cc2C#N)c1; 57 µM

Task item: Tell me IC50 of N#Cc1cc([N+](=O)[O-])ccc1Oc1cc(Cl)cc(Cl)c1 when tested on Coxsackievirus B3.
Reply: > 81 µM

Task item: Tell me IC50 of N#Cc1cc([N+](=O)[O-])ccc1Oc1ccc(Cl)cc1Br when tested on Coxsackievirus B3.
Reply: 3.7 µM

Task item: Tell me IC50 of CC(=O)Nc1ccc(Oc2ccc([N+](=O)[O-])cc2C#N)cc1 when tested on Coxsackievirus B3.
Reply: > 336 µM

Task item: Tell me IC50 of N#Cc1cc([N+](=O)[O-])ccc1Oc1ccc(I)cc1 when tested on Coxsackievirus B3.
Reply: 5.7 µM

Task item: Tell me IC50 of N#Cc1cc([N+](=O)[O-])ccc1Oc1cccc(N)c1 when tested on Coxsackievirus B3.
Reply: 241 µM

Task item: Tell me IC50 of N#Cc1cc([N+](=O)[O-])ccc1Oc1ccc(Cl)cc1 when tested on Coxsackievirus B3.
Reply: 5 µM

Task item: Tell me IC50 of N#Cc1cc([N+](=O)[O-])ccc1Oc1ccc(Cl)cc1Cl when tested on Coxsackievirus B3.
Reply: 13 µM

Task item: Tell me IC50 of N#Cc1cc([N+](=O)[O-])ccc1Oc1ccc(N)c([N+](=O)[O-])c1 when tested on Coxsackievirus B3.
Reply: 10 µM

Task item: Tell me IC50 of N#Cc1cccc(Oc2ccc([N+](=O)[O-])cc2C#N)c1 when tested on Coxsackievirus B3.
Reply: 7.4 µM

Just for reference, ChEMBL document CHEMBL1158184 is where these values come from.
